quantity.kind: melting point

Look over these answered cases.
* [Se]=C(NCc1ccccc1)Nc1ccc(C23CC4CC(CC(C4)C2)C3)cc1 [5e] | 147 to 148 °C
* CC(NC(=[Se])NCc1ccccc1)C12CC3CC(CC(C3)C1)C2 (centres unmarked) [5c] | 154 to 155 °C
* [Se]=C(NCc1ccccc1)NC1C2CC3CC(C2)CC1C3 (centres unmarked) [5g, 1-(Adamantan-2-yl)-3-benzylselenourea] | 139 to 140 °C
* [Se]=C(Nc1ccccc1)NC12CC3CC(CC(C3)C1)C2 [4a, 1-(Adamantan-1-yl)-3-phenylselenourea] | 202 to 203 °C
* [Se]=C(Nc1ccccc1)Nc1ccc(C23CC4CC(CC(C4)C2)C3)cc1 [4e] | 163 to 164 °C
* [Se]=C(NCc1ccccc1)NC12CC3CC(CC(C3)C1)C2 [5a, 1-(Adamantan-1-yl)-3-benzylselenourea] | 157 to 158 °C
* [Se]=C(Nc1ccccc1)NC1C2CC3CC(C2)CC1C3 (centres unmarked) [4g, 1-(Adamantan-2-yl)-3-phenylselenourea] | 187 to 188 °C

// query Item CC12CC3CC(C)(C1)CC(NC(=[Se])Nc1ccccc1)(C3)C2 [4f] has what recorded melting point?
// result 142 to 143 °C
